# System: Amaranthus retroflexus
# ASSAY NOTES: Herbicidal effect pre-emergence
# Type: in vivo
# MEASUREMENT CONTEXT: 320 g/ha, visual grading after ca. 3 weeks vs untreated controls
REPORTED METRIC: herbicidal effect AMARE (%)

• COCC(=O)Nc1nsc2c(=O)n(CC3CCCCC3)cc(Cl)c12 = 100
• Nc1nsc2c(=O)n(CC3CCCCC3Cl)cc(Cl)c12 (racemic) [Example I-156] = 100
• CC(C)c1cc2c(NC(=O)C(F)(F)C(F)(F)F)nsc2c(=O)n1CC1CCCCC1 = 100
• CCCc1cc2c(NC(=O)C(F)(F)C(F)(F)F)nsc2c(=O)n1CC1CCCCC1 = 80
• COC(C)(C)C#Cc1cn(CC2CCCCC2)c(=O)c2snc(N)c12 = 100
• Nc1nsc2c(=O)n(CC3CCCCC3)cc(Br)c12 = 100
• CCC(=O)Nc1nsc2c(=O)n(CC3CCCCC3)c(CC)cc12 = 100
• O=C(Nc1nsc2c(=O)n(CC3CCCCC3)cc(Cl)c12)C(F)(F)F = 100
• CCC(=O)Nc1nsc2c(=O)n(CC3CCCCC3Cl)cc(Cl)c12 (racemic) [Example I-173] = 90
• CCC(=O)N(C(=O)CC)c1nsc2c(=O)n(CC3CCCCC3)c(CO)cc12 = 100
• CCC(=O)N(C(=O)CC)c1nsc2c(=O)n(CC3CCCCC3)cc(Cl)c12 = 100
• CCC(=O)OCC1Cc2c(N)nsc2C(=O)N1CC1CCCCC1 (stereo not drawn) = 100
• COCC#Cc1cn(CC2CCCCC2)c(=O)c2snc(N)c12 = 90
• O=C(Nc1nsc2c(=O)n(CC3CCCCC3)cc(Br)c12)C(F)(F)F = 100
• Nc1nsc2c1CC(CO)N(CC1CCCCC1)C2=O (stereo not drawn) = 100
• COCc1cc2c(N)nsc2c(=O)n1CC1CCCCC1 = 90
• CCC(=O)Nc1nsc2c(=O)n(CC3CCCCC3)cc(F)c12 = 100
• O=C(Nc1nsc2c(=O)n(Cc3cc(F)c(F)cc3F)cc(F)c12)C(F)F = 100
